Recorded measurements of EC50 (agr-GFP reporter, ΔagrD strain), one per entry
# Measured on: L. monocytogenes AgrC (Listeria monocytogenes (EGD-e))
# Assay name: cell-based or functional assay
Bridges are numbered along the chain shown (N, C = ends). Where no end group is shown, it is not given here.
Assay metric: EC50 (agr-GFP reporter, ΔagrD strain) (nM)

{"Binder": "KACFMFV (bridge 3-C; also: thiolactone: Cys3 side chain to C-terminal carboxyl) [7-mer, K-A-(C-F-M-F-V)]", "Observed value": 61.7}
{"Binder": "SKACFMFV (not fully specified; thiolactone ring Cys4-Val8 (Cys side chain to C-terminal carboxyl)) [8-mer]", "Observed value": 68.6}
{"Binder": "MSKACFMFV (not fully specified; thiolactone ring Cys5-Val9 (Cys side chain to C-terminal carboxyl)) [9-mer]", "Observed value": 23.5}
{"Binder": "ADSSMSKACFMFV (not fully specified; thiolactone ring Cys9-Val13 (Cys side chain to C-terminal carboxyl)) [13-mer]", "Observed value": 29}
{"Binder": "SSMSKACFMFV (not fully specified; thiolactone ring Cys7-Val11 (Cys side chain to C-terminal carboxyl)) [11-mer]", "Observed value": 14.3}
{"Binder": "SMSKACFMFV (not fully specified; thiolactone ring Cys6-Val10 (Cys side chain to C-terminal carboxyl)) [10-mer]", "Observed value": 21.5}
{"Binder": "VADSSMSKACFMFV (not fully specified; thiolactone ring Cys10-Val14 (Cys side chain to C-terminal carboxyl)) [14-mer]", "Observed value": 39.9}
{"Binder": "DSSMSKACFMFV (not fully specified; thiolactone ring Cys8-Val12 (Cys side chain to C-terminal carboxyl)) [12-mer]", "Observed value": 43.4}
{"Binder": "KVADSSMSKACFMFV (not fully specified; thiolactone ring Cys11-Val15 (Cys side chain to C-terminal carboxyl)) [15-mer]", "Observed value": 22.2}
